Task for the reader: assign each of the following molecules its reported IC0 (μM) (maximum non-cytotoxic concentration).
- System: BMEC (bovine medullary endothelial cell)
- procedure_text: Cytotoxicity on endothelial cells (BMEC)
- Assay type: cell-based
- settings: BMEC
One number for each entry, in µM.

Look over these answered cases.
molecule="c1ccc2c(C3CCCc4[nH]c5ccccc5c43)c[nH]c2c1 (racemic) [ST1729]" test_system="BMEC (bovine medullary endothelial cell)" quantitative_readout=25
molecule="Oc1ccc2[nH]cc(C3CCCCc4c3[nH]c3ccc(O)cc43)c2c1 (racemic) [ST1783]" test_system="BMEC (bovine medullary endothelial cell)" quantitative_readout=10
molecule="c1ccc2c(C3CCCCc4c3[nH]c3ccccc43)c[nH]c2c1 (racemic) [ST1381, 1-(indol-3-yl)-indo [2,3a]-cycloheptan.]" test_system="BMEC (bovine medullary endothelial cell)" quantitative_readout=30
molecule="c1ccc2c(C3CCCCc4[nH]c5ccccc5c43)c[nH]c2c1 (racemic) [ST1621, 5-(indol-3-yl)-indo [2,3a]-cycloheptan.]" test_system="BMEC (bovine medullary endothelial cell)" quantitative_readout=0.1
molecule="c1[nH]c2cc3c(cc2c1C1CCCCc2c1[nH]c1cc4c(cc21)OCO4)OCO3 (racemic) [ST1749]" test_system="BMEC (bovine medullary endothelial cell)" quantitative_readout=100

Query molecule follows.
Recall and state the measured IC0 (μM) (maximum non-cytotoxic concentration) for c1ccc(COc2ccc3[nH]cc(C4CCCCc5[nH]c6ccc(OCc7ccccc7)cc6c54)c3c2)cc1 (racemic) [ST1778] .
25

====

- procedure_text: Cytotoxicity on endothelial cells (BMEC)
- Format: cell-based, bovine
- settings: bovine, BMEC (bovine medullary endothelial cell) cultures; read-out: IC50 (μM), cytotoxicity on BMEC
property_label: IC50

Known IC50 results, listed for orientation:
compound="c1[nH]c2cc3c(cc2c1C1CCCCc2c1[nH]c1cc4c(cc21)OCO4)OCO3 (racemic)" property_label=IC50 result="> 200 µM"
compound="Oc1ccc2[nH]cc(C3CCCCc4c3[nH]c3ccc(O)cc43)c2c1 (racemic)" property_label=IC50 result="60 µM"
compound="c1ccc2c(C3CCCc4[nH]c5ccccc5c43)c[nH]c2c1 (racemic)" property_label=IC50 result="80 µM"
compound="c1ccc(COc2ccc3[nH]cc(C4CCCCc5[nH]c6ccc(OCc7ccccc7)cc6c54)c3c2)cc1 (racemic)" property_label=IC50 result="50 µM"

Quickly give me recorded IC50 for c1ccc2c(C3CCCCc4[nH]c5ccccc5c43)c[nH]c2c1 (racemic) [ST1621, 5-(indol-3-yl)-indo [2,3a]-cycloheptan.]
10 µM

====

property_label: melting point

Some solved cases for reference:
compound="OCCCCC(c1cc2cc3c(cc2[nH]1)OCO3)c1c[nH]c2cc3c(cc12)OCO3 (racemic)" property_label="melting point" result="220 °C (dec.)"
compound=OCCCCC(c1c[nH]c2cc3c(cc12)OCO3)c1c[nH]c2cc3c(cc12)OCO3 property_label="melting point" result="200 °C (dec.)"
compound="c1ccc2c(C3CCCc4c3[nH]c3ccccc43)c[nH]c2c1 (racemic)" property_label="melting point" result="207 °C"
compound="CC1(C)OCC(C2c3c([nH]c4ccccc34)C(c3c[nH]c4ccccc34)C3OC(C)(C)OC32)O1 (racemic)" property_label="melting point" result="204 to 206 °C (dec.)"
compound="c1[nH]c2cc3c(cc2c1C1CCCCc2c1[nH]c1cc4c(cc21)OCO4)OCO3 (racemic)" property_label="melting point" result="184 °C (dec.)"

# batch size: 4; output melting point per entry
1. OCCCC(c1c[nH]c2cc3c(cc12)OCO3)c1c[nH]c2cc3c(cc12)OCO3
2. c1[nH]c2cc3c(cc2c1C1CCCc2c1[nH]c1cc4c(cc21)OCO4)OCO3 (racemic)
3. c1ccc(COc2ccc3[nH]cc(C4CCCCc5c4[nH]c4ccc(OCc6ccccc6)cc54)c3c2)cc1 (racemic)
4. c1ccc2c(C3CCCc4[nH]c5ccccc5c43)c[nH]c2c1 (racemic)

1: 240 °C (dec.); 2: 200 °C (dec.); 3: 286 °C (dec.); 4: 182 °C

====

- System: LoVo (human colon carcinoma)
- procedure_text: Sulforodamine B antiproliferative test, sensitive LoVo cells
- Assay type: cell-based
- settings: 24 hours incubation, survival after another 48 hours, read-out: IC50 +/− SD, antiproliferative activity vs sensitive cell, LoVo
property_label: pIC50
Give bare numbers, as −log10 of the molar value.

Solved cases (3 shown):
compound="c1ccc2c(C3CCCCc4[nH]c5ccccc5c43)c[nH]c2c1 (racemic) [ST1621, 5-(indol-3-yl)-indo [2,3a]-cycloheptan.]" quantitative_readout=4.46
compound="c1[nH]c2cc3c(cc2c1C1CCCc2[nH]c4cc5c(cc4c21)OCO5)OCO3 (racemic)" quantitative_readout=6.19
compound="c1ccc2c(C3CCCc4c3[nH]c3ccccc43)c[nH]c2c1 (racemic)" quantitative_readout=4.64

Please look at the following compound next.
Give me measured pIC50, please, for this compound: c1ccc(COc2ccc3[nH]cc(C4CCCCc5[nH]c6ccc(OCc7ccccc7)cc6c54)c3c2)cc1 (racemic)
4.26

====

- Tested on: LoVo resistant cell (LoVo/Dx, overexpressing P-glycoprotein, resistant to doxorubicin)
- procedure_text: Antiproliferative activity vs resistant cells, LoVo
- Type: cell-based
- settings: Homo sapiens, read-out: IC50 +/− SD, antiproliferative activity vs resistent cell, LoVo
property_label: pIC50
Numbers only, as −log10 of the molar value.

Sample records with pIC50:
compound="c1ccc2c(C3CCCCc4c3[nH]c3ccccc43)c[nH]c2c1 (racemic) [ST1381, 1-(indol-3-yl)-indo [2,3a]-cycloheptan.]" quantitative_readout=4.60
compound="c1ccc(COc2ccc3[nH]cc(C4CCCCc5c4[nH]c4ccc(OCc6ccccc6)cc54)c3c2)cc1 (racemic)" quantitative_readout=4.77
compound="CC1(C)OCC(C2c3c([nH]c4ccccc34)C(c3c[nH]c4ccccc34)C3OC(C)(C)OC32)O1 (racemic)" quantitative_readout=4.66
compound="c1ccc2c(C3CCCCc4[nH]c5ccccc5c43)c[nH]c2c1 (racemic) [ST1621, 5-(indol-3-yl)-indo [2,3a]-cycloheptan.]" quantitative_readout=4.62

Please look at the following compound next.
Tell me measured pIC50 for c1ccc(COc2ccc3[nH]cc(C4CCCCc5[nH]c6ccc(OCc7ccccc7)cc6c54)c3c2)cc1 (racemic) please.
4.19

====

- Tested on: LoVo (human colon carcinoma)
- procedure_text: Sulforodamine B antiproliferative test, sensitive LoVo cells
- Assay type: cell-based
- settings: 24 hours incubation, survival after another 48 hours, read-out: IC50 +/− SD, antiproliferative activity vs sensitive cell, LoVo
- Description: For the cytotoxic activity, proliferation screening tests were used, with different tumour lines, such as MCF-7 (human mammary carcinoma), LoVo (human colon carcinoma), MES-SA (human uterine sarcoma), or K-562 (human chronic myeloid leukaemia). The test used was the sulforodamine B test used for screening anticancer products at the National Cancer Institute (Skehan, 1990). […]
Record form. Attribute: pIC50. Fill in for each entry.
Numbers only, as −log10 of the molar value.

compound="c1ccc2c(C3CCCCc4c3[nH]c3ccccc43)c[nH]c2c1 (racemic) [ST1381, 1-(indol-3-yl)-indo [2,3a]-cycloheptan.]" test_system="LoVo (human colon carcinoma)" quantitative_readout=4.65
compound="Oc1ccc2[nH]cc(C3CCCCc4c3[nH]c3ccc(O)cc43)c2c1 (racemic) [ST1783]" test_system="LoVo (human colon carcinoma)" quantitative_readout=4.54
compound="c1ccc2c(C3CCCc4[nH]c5ccccc5c43)c[nH]c2c1 (racemic) [ST1729]" test_system="LoVo (human colon carcinoma)" quantitative_readout=4.30

Consider the following items and state reported pIC50 for each.
1. CC1(C)OCC(C2c3c([nH]c4ccccc34)C(c3c[nH]c4ccccc34)C3OC(C)(C)OC32)O1 (racemic) [ST1372]
2. c1ccc(COc2ccc3[nH]cc(C4CCCCc5c4[nH]c4ccc(OCc6ccccc6)cc54)c3c2)cc1 (racemic) [ST1765]

4.66
4.98

====

- procedure_text: Cytotoxicity on endothelial cells (BMEC)
- Type: cell-based, bovine
- settings: bovine, BMEC (bovine medullary endothelial cell) cultures; endothelial cell; read-out: cytotoxicity vs endotelial cell (IC)
pIC50: −log10 of the molar value.
property_label: pIC50

// Input: c1ccc2c(C3CCCCc4c3[nH]c3ccccc43)c[nH]c2c1 (racemic) [ST1381, 1-(indol-3-yl)-indo [2,3a]-cycloheptan.] . Output its pIC50 only.
< 4.00
